# Test system: T24-BAG4 human bladder carcinoma cells expressing an activated H-ras gene
# MEASUREMENT PROTOCOL: Cell Mat assay: inhibition of tumor cell growth
# Type: cell-based
# TEST CONTEXT: Homo sapiens, Ras-transformed tumor cells
QUANTITY: IC50 (µM)
Answer with a number only, understood to be in µM.

Q: Query: IC50; subject: "C=CS(=O)(=O)N1CCC(=C2c3ccc(Cl)cc3CCc3cccnc32)CC1"
A: 6.3
